// data source = patent US7041687B2

Biological target: AKT-3 (Homo sapiens, UniProt Q9Y243)
Sequence (Q9Y243 whole entry): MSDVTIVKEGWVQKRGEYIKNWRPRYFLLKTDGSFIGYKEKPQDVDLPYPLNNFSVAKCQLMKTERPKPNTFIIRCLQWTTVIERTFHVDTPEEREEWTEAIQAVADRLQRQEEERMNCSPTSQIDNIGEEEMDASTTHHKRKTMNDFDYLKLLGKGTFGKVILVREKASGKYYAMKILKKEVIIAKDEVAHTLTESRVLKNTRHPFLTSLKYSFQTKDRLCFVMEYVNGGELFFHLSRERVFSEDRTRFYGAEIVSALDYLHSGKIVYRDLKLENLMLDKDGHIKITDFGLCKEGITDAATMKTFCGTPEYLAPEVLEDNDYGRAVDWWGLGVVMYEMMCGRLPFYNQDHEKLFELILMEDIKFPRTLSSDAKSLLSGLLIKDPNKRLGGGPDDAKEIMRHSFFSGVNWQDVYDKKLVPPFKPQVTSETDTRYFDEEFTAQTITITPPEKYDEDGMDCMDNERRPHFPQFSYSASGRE
Kindly supply the reported Ki values for the records listed here.

// known answers, use as guide
- molecule: "NCCCNC(C(=O)Nc1ccc2[nH]ncc2c1)c1cccc(Cl)c1 (stereo not shown)"
  result: "< 1000 nM"
- molecule: "Cc1n[nH]c2ccc(NC(=O)C(CN)c3ccc(Cl)s3)cc12 (stereo not shown)"
  result: "< 1000 nM"
- molecule: "NCCC(C(=O)Nc1ccc2[nH]nc(-c3cccc(Cl)c3)c2c1)c1ccccc1 (stereo not shown)"
  result: "1000 to 10000 nM"

Look at this molecule and give its reported Ki. NCCC(C(=O)Nc1ccc2[nH]nc(-c3ccccc3)c2c1)c1ccccc1 (stereo not shown) 1000 to 10000 nM

---

Target: AKT-3 (Homo sapiens, UniProt Q9Y243)
pKi: −log10 of the molar value.
parameter-measured: pKi

# example entries with known answers
- compound: "NCC(C(=O)Nc1ccc2[nH]ncc2c1)c1ccc(Cl)c(Cl)c1 (centres unmarked)"
  tested-target: "AKT-3 (Homo sapiens, UniProt Q9Y243)"
  parameter-measured: "pKi"
  result: "> 6.00"
- compound: "NCCC(C(=O)Nc1ccc2[nH]ncc2c1)c1cccc(Cl)c1F (centres unmarked)"
  tested-target: "AKT-3 (Homo sapiens, UniProt Q9Y243)"
  parameter-measured: "pKi"
  result: "> 6.00"
- compound: "NCCC(C(=O)Nc1ccc2[nH]ncc2c1)c1cccc(N)c1 (centres unmarked)"
  tested-target: "AKT-3 (Homo sapiens, UniProt Q9Y243)"
  parameter-measured: "pKi"
  result: "5.00 to 6.00"
- compound: "Cc1n[nH]c2ccc(NC(=O)[C@H](CCN)c3cccc(Cl)c3F)cc12"
  tested-target: "AKT-3 (Homo sapiens, UniProt Q9Y243)"
  parameter-measured: "pKi"
  result: "> 6.00"
- compound: "NCCC(C(=O)Nc1ccc2[nH]nc(NC(=O)c3cccc(F)c3)c2c1)c1ccc(Cl)c(Cl)c1 (centres unmarked)"
  tested-target: "AKT-3 (Homo sapiens, UniProt Q9Y243)"
  parameter-measured: "pKi"
  result: "> 6.00"
- compound: "NCCC(C(=O)Nc1ccc2[nH]nc(NC(=O)Cc3ccccc3)c2c1)c1ccc(Cl)c(Cl)c1 (centres unmarked)"
  tested-target: "AKT-3 (Homo sapiens, UniProt Q9Y243)"
  parameter-measured: "pKi"
  result: "5.00 to 6.00"
- compound: "NCCC(C(=O)Nc1ccc2[nH]nc(NC(=O)c3cccnc3)c2c1)c1ccc(Cl)c(Cl)c1 (centres unmarked)"
  tested-target: "AKT-3 (Homo sapiens, UniProt Q9Y243)"
  parameter-measured: "pKi"
  result: "> 6.00"
- compound: "NCCC(C(=O)Nc1ccc2[nH]nc(Nc3ccc(Br)cc3)c2c1)c1ccc(Cl)c(Cl)c1 (centres unmarked)"
  tested-target: "AKT-3 (Homo sapiens, UniProt Q9Y243)"
  parameter-measured: "pKi"
  result: "> 6.00"
- compound: "NCCC(C(=O)Nc1ccc2[nH]ncc2c1)c1ccc2ccccc2c1 (centres unmarked)"
  tested-target: "AKT-3 (Homo sapiens, UniProt Q9Y243)"
  parameter-measured: "pKi"
  result: "> 6.00"
- compound: "NCCC(C(=O)Nc1ccc2[nH]nc(NC(=O)c3ccc(Cl)cc3)c2c1)c1ccc(Cl)c(Cl)c1 (centres unmarked)"
  tested-target: "AKT-3 (Homo sapiens, UniProt Q9Y243)"
  parameter-measured: "pKi"
  result: "> 6.00"

Provide reported pKi for each item, in the same order as listed.
1. NC(C(=O)Nc1ccc2[nH]ncc2c1)c1ccc(F)c(Cl)c1 (centres unmarked)
2. Cc1n[nH]c2ccc(NC(=O)C(CCN)c3ccc(Cl)cc3F)cc12 (centres unmarked)

5.00 to 6.00
> 6.00

Provide each entry's pKi from the list below.
1. Cc1n[nH]c2ccc(NC(=O)C(CCN)c3cccc(Cl)n3)cc12 (centres unmarked)
2. NCCC(C(=O)Nc1ccc2[nH]nc(NC(=O)c3cccc(Oc4ccccc4)c3)c2c1)c1ccc(Cl)c(Cl)c1 (centres unmarked)
3. CN(C)CCC(C(=O)Nc1ccc2[nH]ncc2c1)c1ccc(Cl)c(Cl)c1 (centres unmarked)
4. CCNc1cccc(C(=O)Nc2n[nH]c3ccc(NC(=O)C(CCN)c4ccc(Cl)c(Cl)c4)cc23)c1 (centres unmarked)

1: > 6.00; 2: > 6.00; 3: > 6.00; 4: > 6.00

Record pKi for all entries; do not skip any.
1. COc1ccccc1C(CCN)C(=O)Nc1ccc2[nH]ncc2c1 (centres unmarked) [Compound I-113]
2. Cc1cccc(-c2n[nH]c3ccc(NC(=O)C(CCN)c4ccc(Cl)c(Cl)c4)cc23)c1 (centres unmarked)
3. NCCC(C(=O)Nc1ccc2[nH]nc(-c3cccc(C(F)(F)F)c3)c2c1)c1ccc(Cl)c(Cl)c1 (centres unmarked)
4. N#Cc1cccc(Nc2n[nH]c3ccc(NC(=O)[C@@H](CCN)c4c(F)ccc(Cl)c4F)cc23)c1

1: 5.00 to 6.00; 2: > 6.00; 3: > 6.00; 4: 5.00 to 6.00

---

Would you kindly list Ki for each of these molecules?
Sequence of the target: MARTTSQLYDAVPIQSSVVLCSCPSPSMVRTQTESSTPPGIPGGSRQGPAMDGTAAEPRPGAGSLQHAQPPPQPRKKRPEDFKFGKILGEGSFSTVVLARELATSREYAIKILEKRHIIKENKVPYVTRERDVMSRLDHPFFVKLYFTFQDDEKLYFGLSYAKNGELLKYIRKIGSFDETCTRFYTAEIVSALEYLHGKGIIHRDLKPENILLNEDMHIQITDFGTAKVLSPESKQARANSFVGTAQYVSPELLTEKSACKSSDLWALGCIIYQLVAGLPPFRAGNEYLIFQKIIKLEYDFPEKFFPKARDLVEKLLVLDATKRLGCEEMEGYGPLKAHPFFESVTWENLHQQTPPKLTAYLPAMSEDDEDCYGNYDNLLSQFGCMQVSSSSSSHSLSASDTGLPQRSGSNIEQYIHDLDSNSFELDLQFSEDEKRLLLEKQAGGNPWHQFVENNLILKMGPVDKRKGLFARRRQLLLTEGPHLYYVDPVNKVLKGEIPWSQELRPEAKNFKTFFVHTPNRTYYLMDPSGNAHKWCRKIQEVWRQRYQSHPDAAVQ

Some molecules with recorded Ki:
- molecule: "CCCc1ccc(C(=O)Nc2n[nH]c3ccc(NC(=O)C(CCN)c4ccc(Cl)c(Cl)c4)cc23)cc1 (centres unmarked)"
  Ki: "1000 to 3000 nM"
- molecule: "NCCC(C(=O)Nc1ccc2[nH]nc(-c3cccc(C(F)(F)F)c3)c2c1)c1ccccc1 (centres unmarked)"
  Ki: "< 1000 nM"
- molecule: "NCCC(C(=O)Nc1ccc2[nH]ncc2c1)c1cccc(Cl)c1Cl (centres unmarked)"
  Ki: "< 1000 nM"
- molecule: "NCCCC(C(=O)Nc1ccc2[nH]ncc2c1)c1ccc(Cl)c(Cl)c1 (centres unmarked)"
  Ki: "> 3000 nM"

Now take the following molecule into account.
Recorded Ki of Cc1n[nH]c2ccc(NC(=O)[C@H](CCN)c3ccccc3)cc12 , please. < 1000 nM

---

Let's go through some Ki measurements on AKT-3 (Homo sapiens) together.

Some molecules with recorded Ki:
- molecule: "Cc1n[nH]c2ccc(NC(=O)C(CCN)c3ccc(Cl)c(Cl)c3)cc12 (centres unmarked) [Compound I-117]"
  Ki: "< 1000 nM"
- molecule: "NCCC(C(=O)Nc1ccc2[nH]nc(NC(=O)c3cccc(C(F)(F)F)c3)c2c1)c1ccc(Cl)c(Cl)c1 (centres unmarked) [Compound I-200]"
  Ki: "< 1000 nM"
- molecule: "COc1ccc(C(=O)Nc2n[nH]c3ccc(NC(=O)C(CCN)c4ccc(Cl)c(Cl)c4)cc23)cc1 (centres unmarked) [Compound I-168]"
  Ki: "< 1000 nM"
- molecule: "Cc1cccc(C(CCN)C(=O)Nc2ccc3[nH]nc(C)c3c2)c1 (centres unmarked) [Compound I-131]"
  Ki: "< 1000 nM"

Each molecule below has a recorded value; state its Ki.
1. NCC(C(=O)Nc1ccc2[nH]ncc2c1)c1cccc(Cl)c1F (centres unmarked) [Compound I-257]
2. CN(C)CC(C(=O)Nc1ccc2[nH]ncc2c1)c1ccc(Cl)c(Cl)c1 (centres unmarked) [Compound I-227]
3. NC(C(=O)Nc1ccc2[nH]ncc2c1)c1ccc2ccccc2c1 (centres unmarked) [Compound I-58]
4. O=C(Nc1ccc2[nH]ncc2c1)C(O)c1cc(F)cc(F)c1 (centres unmarked) [Compound I-43]
5. NCCC(C(=O)Nc1ccc2[nH]nc(Nc3cccc(F)c3)c2c1)c1ccccc1 (centres unmarked) [Compound I-1039]

1. < 1000 nM
2. < 1000 nM
3. 1000 to 10000 nM
4. 1000 to 10000 nM
5. 1000 to 10000 nM

Provide each entry's Ki from the list below.
1. NCCC(C(=O)Nc1ccc2[nH]nc(NC(=O)c3cccc(Cn4ccnc4)c3)c2c1)c1ccc(Cl)c(Cl)c1 (centres unmarked) [Compound I-217]
2. NCCC(C(=O)Nc1ccc2[nH]nc(Nc3ccc(Cl)cc3)c2c1)c1ccc(Cl)c(Cl)c1 (centres unmarked) [Compound I-163]
3. CNC(=O)NCCC(C(=O)Nc1ccc2[nH]ncc2c1)c1ccc(Cl)c(Cl)c1 (centres unmarked) [Compound I-152]
4. NCCC(C(=O)Nc1ccc2[nH]nc(-c3ccc(F)cc3)c2c1)c1ccc(Cl)c(Cl)c1 (centres unmarked) [Compound I-234]
5. CC(=O)c1cccc(C(=O)Nc2n[nH]c3ccc(NC(=O)C(CCN)c4ccc(Cl)c(Cl)c4)cc23)c1 (centres unmarked) [Compound I-220]
6. NCCC(C(=O)Nc1cc(Br)c2[nH]ncc2c1)c1ccc(Cl)c(Cl)c1 (centres unmarked) [Compound I-144]
7. CCc1n[nH]c2ccc(NC(=O)C(CCN)c3ccc(Cl)c(Cl)c3)cc12 (centres unmarked) [Compound I-118]

1: < 1000 nM; 2: < 1000 nM; 3: 1000 to 10000 nM; 4: < 1000 nM; 5: < 1000 nM; 6: < 1000 nM; 7: < 1000 nM

Please state recorded Ki (tested on AKT-3 (Homo sapiens)) of COc1cccc(C(=O)Nc2n[nH]c3ccc(NC(=O)C(CCN)c4ccc(Cl)c(Cl)c4)cc23)c1 (centres unmarked) [Compound I-167] < 1000 nM
